Listed below: pest or weed control at 320 g/ha values for each entry.
system: SETVI; assay: Pre-emergence herbicidal effect, greenhouse pot test; format: in vivo, Setaria viridis; conditions: Setaria viridis, 504 h, 320 g/ha, scored visually after about 3 weeks vs untreated controls, read-out: Pre-emergence effect at 320 g/ha against SETVI in %
Show the value, then the unit it is measured in.

Worked set:
INSERT INTO measurements (compound, targetundertest, readouttype, result) VALUES
  ('COC(=O)C(OC)Oc1nn(-c2ncccc2F)c(-c2ccc(F)nc2)c1Br (centres unmarked) [Example I-05]', 'SETVI', 'pest or weed control at 320 g/ha', '100%'),
  ('COC(=O)C(OC)Oc1nn(-c2ncccc2F)c(-c2ccc(F)cc2F)c1Br (centres unmarked) [Example I-07]', 'SETVI', 'pest or weed control at 320 g/ha', '100%'),
  ('CCOC(=O)C(OCC)Oc1nn(-c2ncccc2F)c(-c2ccc(Cl)cc2)c1Br (centres unmarked) [Example I-02]', 'SETVI', 'pest or weed control at 320 g/ha', '80%'),
  ('COC(=O)C(OC)Oc1nn(-c2ccccc2F)c(-c2ccc(F)nc2)c1Br (racemic) [Example I-04]', 'SETVI', 'pest or weed control at 320 g/ha', '100%'),
  ('COC(=O)C(OC)Oc1nn(-c2cc(F)ccc2F)c(-c2cncc(F)c2)c1C1CC1 (centres unmarked) [Example I-31]', 'SETVI', 'pest or weed control at 320 g/ha', '90%'),
  ('COC(=O)C(OC)Oc1nn(-c2ccccc2F)c(-c2ccc(F)nc2)c1I (centres unmarked) [Example I-49]', 'SETVI', 'pest or weed control at 320 g/ha', '100%');

State the recorded pest or weed control at 320 g/ha for this entry: COC(Oc1nn(-c2cc(F)ccc2F)c(-c2cncc(F)c2)c1C1CC1)C(=O)O (centres unmarked) [Example I-34]
90%

Same read-out for CCOC(=O)C(OCC)Oc1nn(-c2ccccc2F)c(-c2ccc(F)nc2)c1Br (racemic) [Example I-01] ?
100%
